Sourced from the supplement of paper PMC5844555

Tested on: FBXW7
run-description: 3' UTR reporter interaction score (median-centred robust z-score of log2 firefly/Renilla activity); higher = less repression of the 3' UTR reporter
condition-context: HEK293T; 48 h
measured-endpoint: 3' UTR reporter interaction score
Number only, no unit.

// returns 3' UTR reporter interaction score for `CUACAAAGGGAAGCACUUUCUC` with FBXW7; value = -0.7

// returns 3' UTR reporter interaction score for `UGUCAGUUUGUCAAAUACCCC` with FBXW7; value = -3.7

// returns 3' UTR reporter interaction score for `AAAGCGCUUCUCUUUAGAGGA` with FBXW7; value = 0.112

* * *

Test system: EZH2
run-description: 3' UTR reporter interaction score (median-centred robust z-score of log2 firefly/Renilla activity); higher = less repression of the 3' UTR reporter
condition-context: HEK293T; 48 h
Binary classification by 3' UTR reporter interaction score, with -0.4 as an inclusive lower bound for rule met; all other cases are rule not met.

The following sequences have reported results that may help.
[[record]]
residue_string = "GGCAAGAUGCUGGCAUAGCUG"
label_value = "rule met"

[[record]]
residue_string = "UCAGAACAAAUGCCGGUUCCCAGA"
label_value = "rule met"

[[record]]
residue_string = "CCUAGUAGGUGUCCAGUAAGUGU"
label_value = "rule not met"

[[record]]
residue_string = "AAAGCGCUUCCCUUCAGAGUGU"
label_value = "rule met"

[[record]]
residue_string = "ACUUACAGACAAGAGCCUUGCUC"
label_value = "rule not met"

[[record]]
residue_string = "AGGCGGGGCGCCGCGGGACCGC"
label_value = "rule not met"


Problem: Determine whether measured 3' UTR reporter interaction score meets or exceeds -0.4 for `GCGUGCGCCGGCCGGCCGCC`
Result: rule met

Problem: Determine whether measured 3' UTR reporter interaction score meets or exceeds -0.4 for `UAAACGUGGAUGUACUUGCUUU`
Result: rule met

Problem: Determine whether measured 3' UTR reporter interaction score meets or exceeds -0.4 for `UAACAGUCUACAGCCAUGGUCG`
Result: rule met

Problem: Determine whether measured 3' UTR reporter interaction score meets or exceeds -0.4 for `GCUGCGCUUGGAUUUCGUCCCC`
Result: rule met

Problem: Determine whether measured 3' UTR reporter interaction score meets or exceeds -0.4 for `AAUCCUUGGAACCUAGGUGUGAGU`
Result: rule met

Problem: Determine whether measured 3' UTR reporter interaction score meets or exceeds -0.4 for `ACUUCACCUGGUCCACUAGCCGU`
Result: rule not met

Problem: Determine whether measured 3' UTR reporter interaction score meets or exceeds -0.4 for `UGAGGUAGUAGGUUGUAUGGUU`
Result: rule not met

* * *

Test system: MYT1L
run-description: 3' UTR reporter interaction score (median-centred robust z-score of log2 firefly/Renilla activity); higher = less repression of the 3' UTR reporter
condition-context: HEK293T; 48 h
Each entry falls into one class according to its 3' UTR reporter interaction score; the ranges are range 1: < -0.8; range 2: ≥ -0.8 and < -0.2; range 3: ≥ -0.2

[[record]]
residue_string = "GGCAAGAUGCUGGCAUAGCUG"
label_value = "range 3"

[[record]]
residue_string = "AUUCAUUUGGUAUAAACCGCGAU"
label_value = "range 3"

[[record]]
residue_string = "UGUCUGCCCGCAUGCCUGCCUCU"
label_value = "range 3"


Problem: Which class is correct for the following sequence? `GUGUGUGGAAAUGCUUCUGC`
Result: range 1

Problem: Which class is correct for the following sequence? `CAAAACUGGCAAUUACUUUUGC`
Result: range 2

* * *

System: RB1
run-description: 3' UTR reporter interaction score (median-centred robust z-score of log2 firefly/Renilla activity); higher = less repression of the 3' UTR reporter
condition-context: HEK293T; 48 h
measured-endpoint: 3' UTR reporter interaction score
Number only, no unit.

Solved cases (5 shown):
[[record]]
residue_string = "AGCAGCAUUGUACAGGGCUAUCA"
recorded_number = 1.3

[[record]]
residue_string = "AAAGUGCUUCCUUUUAGAGGC"
recorded_number = 0.31

[[record]]
residue_string = "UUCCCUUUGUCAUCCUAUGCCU"
recorded_number = 0.112

[[record]]
residue_string = "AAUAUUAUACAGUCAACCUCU"
recorded_number = -1.29

[[record]]
residue_string = "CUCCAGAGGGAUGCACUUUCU"
recorded_number = 0.459


Entry `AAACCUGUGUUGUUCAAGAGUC` , 3' UTR reporter interaction score reported as -0.803

Entry `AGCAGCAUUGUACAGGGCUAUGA` , 3' UTR reporter interaction score reported as -1.15

Entry `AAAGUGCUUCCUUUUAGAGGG` , 3' UTR reporter interaction score reported as 0.0746

Entry `CUGCAAAGGGAAGCCCUUUCU` , 3' UTR reporter interaction score reported as 1.27

Entry `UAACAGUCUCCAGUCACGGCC` , 3' UTR reporter interaction score reported as -2.21

Entry `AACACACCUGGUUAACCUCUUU` , 3' UTR reporter interaction score reported as -0.572

Entry `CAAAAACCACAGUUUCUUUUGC` , 3' UTR reporter interaction score reported as 0.189

Entry `CUAAUAGUAUCUACCACAAUAAA` , 3' UTR reporter interaction score reported as -0.459

Entry `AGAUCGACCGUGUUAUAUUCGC` , 3' UTR reporter interaction score reported as 0.976

Entry `ACUGCAGUGAAGGCACUUGU` , 3' UTR reporter interaction score reported as -0.0483

* * *

Tested on: MYB
run-description: 3' UTR reporter interaction score (median-centred robust z-score of log2 firefly/Renilla activity); higher = less repression of the 3' UTR reporter
condition-context: HEK293T; 48 h
Recorded 3' UTR reporter interaction score, one value per entry.
Number only, no unit.

[[record]]
residue_string = "AAAGUGCUGUUCGUGCAGGUAG"
measured_endpoint = "3' UTR reporter interaction score"
recorded_number = -1.38


Entry `AAAGCGCUUCCCUUUGCUGGA` , 3' UTR reporter interaction score reported as -0.491

Entry `GCUAGUCCUGACUCAGCCAGU` , 3' UTR reporter interaction score reported as 0.624

Entry `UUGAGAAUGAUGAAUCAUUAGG` , 3' UTR reporter interaction score reported as 0.0167

Entry `ACUUUAACAUGGAAGUGCUUUCU` , 3' UTR reporter interaction score reported as -0.31

Entry `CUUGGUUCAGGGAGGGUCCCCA` , 3' UTR reporter interaction score reported as 0.238

Entry `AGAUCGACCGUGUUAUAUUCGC` , 3' UTR reporter interaction score reported as -1.19

Entry `UACAGUACUGUGAUAACUGAAG` , 3' UTR reporter interaction score reported as 0.694

Entry `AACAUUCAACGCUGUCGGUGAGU` , 3' UTR reporter interaction score reported as 0.057

Entry `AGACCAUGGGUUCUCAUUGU` , 3' UTR reporter interaction score reported as -0.2

* * *

System: MYT1L
run-description: 3' UTR reporter interaction score (median-centred robust z-score of log2 firefly/Renilla activity); higher = less repression of the 3' UTR reporter
condition-context: HEK293T; 48 h
measured-endpoint: 3' UTR reporter interaction score
Number only, no unit.

// returns 3' UTR reporter interaction score for `UUAAGGCACGCGGUGAAUGCCA` with MYT1L; value = 2.33

// returns 3' UTR reporter interaction score for `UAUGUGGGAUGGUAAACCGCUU` with MYT1L; value = -2.09

// returns 3' UTR reporter interaction score for `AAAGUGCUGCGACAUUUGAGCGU` with MYT1L; value = -0.68

* * *

System: FBXW7
run-description: 3' UTR reporter interaction score (median-centred robust z-score of log2 firefly/Renilla activity); higher = less repression of the 3' UTR reporter
condition-context: HEK293T; 48 h
Recorded 3' UTR reporter interaction score, one value per entry.
Number only, no unit.

[[record]]
residue_string = "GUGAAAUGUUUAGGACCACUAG"
assay_system = "FBXW7"
recorded_number = 0.238


Next item in the queue.
// returns 3' UTR reporter interaction score for `UGAAGGUCUACUGUGUGCCAG` with FBXW7; value = 0.56

* * *

Test system: MYT1L
run-description: 3' UTR reporter interaction score (median-centred robust z-score of log2 firefly/Renilla activity); higher = less repression of the 3' UTR reporter
condition-context: HEK293T; 48 h
Recorded 3' UTR reporter interaction score, one value per entry.
Number only, no unit.

[[record]]
residue_string = "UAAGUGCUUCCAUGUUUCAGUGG"
measured_endpoint = "3' UTR reporter interaction score"
recorded_number = -1.46

[[record]]
residue_string = "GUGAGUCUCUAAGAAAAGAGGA"
measured_endpoint = "3' UTR reporter interaction score"
recorded_number = 0.22

[[record]]
residue_string = "GAAGGCGCUUCCCUUUGGAGU"
measured_endpoint = "3' UTR reporter interaction score"
recorded_number = 0.212


Entry `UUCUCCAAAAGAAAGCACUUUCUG` , 3' UTR reporter interaction score reported as 2.07

Entry `UAUUGCACAUUACUAAGUUGC` , 3' UTR reporter interaction score reported as 0.0117
